Measured solubility, listed per entry.
assay: Solubility assay in water, 0.1% hydrochloric acid and methanol; format: physicochemical; details: methanol

Worked examples, 3 compounds total:
>>> df
                                   compound  assay_value
0  CC1=NN(c2ccc3c(c2)CCC3)C(=O)/C1=N\Nc1cccc(-c2cccc(C(=O)O)c2)c1O [Example 1j]     <1 µg/mL
1  CC1=NN(c2ccc3c(c2)C(C)(C)CC3)C(=O)/C1=N\Nc1cccc(-c2ccc(C(=O)O)o2)c1O [Example 4h]     <1 µg/mL
2  CC1=NN(c2ccc3c(c2)CCC3)C(=O)/C1=N\Nc1cccc(-c2ccc(C(=O)O)o2)c1O [Example 16a]     <1 µg/mL

Dear colleague, I am looking for the recorded solubility of the following compound: CC1=NN(c2ccc3c(c2)CCC3)C(=O)/C1=N\Nc1cccc(-c2csc(C(=O)O)c2)c1O [Example 19d]
<1 µg/mL
